Answer each item with its documented IC50.
Target: Axl (Homo sapiens, UniProt P30530)
Sequence (P30530 26-894): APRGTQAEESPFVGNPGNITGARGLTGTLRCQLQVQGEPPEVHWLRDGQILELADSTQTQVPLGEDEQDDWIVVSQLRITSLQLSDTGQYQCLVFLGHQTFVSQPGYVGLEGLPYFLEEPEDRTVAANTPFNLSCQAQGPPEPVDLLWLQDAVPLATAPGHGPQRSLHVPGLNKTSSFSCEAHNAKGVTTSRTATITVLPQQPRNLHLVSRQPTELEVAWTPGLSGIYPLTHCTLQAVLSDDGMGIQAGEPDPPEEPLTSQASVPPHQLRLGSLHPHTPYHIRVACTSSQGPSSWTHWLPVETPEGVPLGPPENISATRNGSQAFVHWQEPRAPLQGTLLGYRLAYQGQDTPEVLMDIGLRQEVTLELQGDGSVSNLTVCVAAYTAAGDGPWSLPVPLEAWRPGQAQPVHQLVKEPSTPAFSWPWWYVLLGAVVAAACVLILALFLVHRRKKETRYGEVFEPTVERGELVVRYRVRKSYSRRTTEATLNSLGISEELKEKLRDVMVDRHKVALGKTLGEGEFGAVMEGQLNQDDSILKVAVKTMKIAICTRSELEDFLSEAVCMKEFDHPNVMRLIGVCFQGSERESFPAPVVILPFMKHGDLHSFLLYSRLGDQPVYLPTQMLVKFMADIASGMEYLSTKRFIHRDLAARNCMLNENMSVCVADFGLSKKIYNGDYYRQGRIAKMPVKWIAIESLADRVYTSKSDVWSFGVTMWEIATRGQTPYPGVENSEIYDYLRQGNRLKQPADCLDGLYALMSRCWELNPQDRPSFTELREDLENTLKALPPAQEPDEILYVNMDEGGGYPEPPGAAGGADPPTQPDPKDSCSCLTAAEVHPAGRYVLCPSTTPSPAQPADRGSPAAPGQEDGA
Test: Cellular Axl inhibition ELISA (p-Axl, Gas6-induced) using H1299 cells
Type: cell-based
Design: especially H1299 cell endogenously expresses Axl; endogenous in cells; host or cells: H1299
Settings: read-out: Cellular Axl activity by H1299 Elisa (IC50)

Example compounds with recorded IC50:
• COc1cc2nccc(Oc3ccc(NC(=O)c4nn(CC(C)(F)F)cc4OCC(F)(F)F)nc3)c2cc1OC = < 500 nM
• CCCn1cc(OCCF)c(C(=O)Nc2ccc(Oc3ccnc4cc(OC)c(OC)cc34)cn2)n1 = < 500 nM
• COc1cc2nccc(Oc3ccc(NC(=O)c4nn(C(C)(C)C)cc4OCC(F)(F)F)nc3)c2cc1OC = < 500 nM

Below is a list of compounds. For each, state its recorded IC50.
1. COCCOc1cn(C2CC2)nc1C(=O)Nc1ccc(Oc2ccnc3cc(OC)c(OC)cc23)nn1
2. CNCCn1cc(OCC(F)(F)F)c(C(=O)Nc2ccc(Oc3ccnc4cc(OC)c(OC)cc34)nn2)n1
3. COc1cc2nccc(Oc3ccc(NC(=O)c4n[nH]cc4OCC(F)(F)F)nc3)c2cc1OC

Reply:
1. < 500 nM
2. ≥ 1000 nM
3. < 500 nM

Task item: State its IC50 on Axl (Homo sapiens, UniProt P30530): `COc1cc2nccc(Oc3ccc(NC(=O)c4nn(CCOC5CC5)cc4OCC(F)(F)F)cn3)c2cc1OC`
Reply: ≥ 1000 nM
